Give measured self-cleavage for each item. Keep answers brief.
B1: Hairpin Ribozyme (parent)
chain: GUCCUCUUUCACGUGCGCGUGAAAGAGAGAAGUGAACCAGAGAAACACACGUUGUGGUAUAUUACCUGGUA

# Variants of: B1
# Method description: self-cleavage, relative activity (ratio to wild type); higher = more cleavage; co-transcriptional

For the variant U14G U53C , what self-cleavage is on record? 0.925

For the variant U7A G17C , what self-cleavage is on record? 0.791

For the variant C18A A36U , what self-cleavage is on record? 0.593

For the variant C4U G34C , what self-cleavage is on record? 1.03

For the variant G21U C65A , what self-cleavage is on record? 0.996

For the variant G27U G40A , what self-cleavage is on record? 0.117

For the variant A22U U60G , what self-cleavage is on record? 0.611

For the variant G13C U33G , what self-cleavage is on record? 0.207
